Task for the reader: assign each of the following molecules its reported IC50.
target: Recombinant Cat D (Homo sapiens (Human)); test: In vitro enzymatic Cathepsin D (Cat D) FRET assay; assay type: biochemical; settings: read-out: IC50 IP (μM) CatD
Sequence (P07339 65-412): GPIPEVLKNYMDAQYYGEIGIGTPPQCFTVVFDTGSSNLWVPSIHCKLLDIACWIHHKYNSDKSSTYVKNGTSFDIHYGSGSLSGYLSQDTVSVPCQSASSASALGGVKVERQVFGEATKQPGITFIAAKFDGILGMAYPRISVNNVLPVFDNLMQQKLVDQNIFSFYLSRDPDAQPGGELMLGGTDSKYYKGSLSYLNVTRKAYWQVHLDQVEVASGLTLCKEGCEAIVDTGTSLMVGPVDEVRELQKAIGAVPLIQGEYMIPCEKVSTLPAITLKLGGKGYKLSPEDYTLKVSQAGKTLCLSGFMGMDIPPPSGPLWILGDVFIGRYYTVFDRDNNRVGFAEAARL
// return numeric value only (unit: µM, not printed)

Could you share which IC50 value was measured for C#CCOc1cnc2c(Nc3ccc(F)c([C@@]4(CF)N=C(N)S[C@@]5(c6cnco6)C[C@@H]45)c3)nccc2n1 [Example 781] ? 397

And the next one, C#CCOc1cnc(C(=O)Nc2cc(F)c(F)c([C@@]3(C)N=C(N)S[C@@]4(COC)C[C@H]43)c2)c(C)n1 [Example 862] ? 129

And the next one, COC[C@]12C[C@H]1[C@@](C)(c1cc(Nc3nccc4cc(OCc5nccs5)cnc34)cc(F)c1F)N=C(N)S2 [Example 737] ? 1500

And the next one, NC1=N[C@](CF)(c2cc(NC(=O)c3ccc(Cl)cn3)ccc2F)[C@@H]2C3CSC[C@]32S1 (stereo partly shown) [Example 753] ? 420

And the next one, COC[C@]12C[C@H]1[C@@](CF)(c1cc(NC(=O)c3ncc(C#N)cc3C)ccc1F)N=C(N)S2 [Example 716] ? 2290

And the next one, C#CCOc1cnc2c(Nc3ccc(F)c([C@@]4(C)N=C(N)S[C@]5(CO)[C@H]4C5(F)F)c3)nccc2n1 [Example 707] ? 550

----------
molecular target: human recombinant BACE2 (Homo sapiens (Human)); assay: In vitro enzymatic BACE2 FRET assay; type: biochemical; conditions: read-out: IC50 IP (μM) BACE2 enzyme
Sequence (Q9Y5Z0 63-518): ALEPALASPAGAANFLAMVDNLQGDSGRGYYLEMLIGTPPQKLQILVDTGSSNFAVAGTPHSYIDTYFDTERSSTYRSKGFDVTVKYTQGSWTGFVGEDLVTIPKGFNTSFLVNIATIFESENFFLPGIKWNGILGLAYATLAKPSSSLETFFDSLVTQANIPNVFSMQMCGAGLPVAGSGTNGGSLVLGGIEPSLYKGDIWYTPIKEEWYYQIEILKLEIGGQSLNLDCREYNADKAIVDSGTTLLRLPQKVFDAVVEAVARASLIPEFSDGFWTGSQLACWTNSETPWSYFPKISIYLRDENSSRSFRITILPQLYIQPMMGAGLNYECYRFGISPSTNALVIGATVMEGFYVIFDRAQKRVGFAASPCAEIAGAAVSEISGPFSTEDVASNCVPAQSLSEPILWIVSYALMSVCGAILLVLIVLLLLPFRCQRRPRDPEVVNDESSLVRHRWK
Task for the reader: assign each of the following molecules its reported IC50.
// return numeric value only (unit: µM, not printed)

Could you share which IC50 value was measured for `CC#CCOc1cnc2c(Nc3cc(F)c(F)c([C@@]4(C)N=C(N)S[C@@]5(COC)C[C@H]54)c3)nccc2n1` ? 0.0173

And the next one, `C#CCOc1cnc2c(Nc3cnc(F)c([C@@]4(C)N=C(N)S[C@H]5C[C@H]54)c3)nccc2n1` ? 0.0401

And the next one, `C#C[C@H](C)Oc1cnc(C(=O)Nc2ccc(F)c([C@@]3(C)N=C(N)S[C@@]4(COC)C[C@H]43)c2)c(C)c1` ? 0.284

And the next one, `C#CCOc1cnc2c(Nc3ccc(F)c([C@@]4(CF)N=C(N)S[C@@]5(c6cnco6)C[C@@H]45)c3)ncnc2c1` ? 0.0245

And the next one, `COC[C@]12C[C@H]1[C@@](C)(c1cc(NC(=O)c3cnc(OCC(F)F)cn3)ccc1F)N=C(N)S2` ? 0.158

And the next one, `C[C@]1(c2cc(Nc3ncnc4cc(OCc5ncco5)cnc34)cc(F)c2F)N=C(N)S[C@@]2(C(F)F)C[C@@H]12` ? 0.0642

And the next one, `C[C@]1(c2cc(Nc3ncnc4cc(F)cnc34)cc(F)c2F)N=C(N)S[C@H]2C[C@H]21` ? 0.0298

And the next one, `C[C@]1(c2cc(Nc3ncnc4cc(OCc5ncco5)cnc34)cc(F)c2F)N=C(N)S[C@@]2(CF)C[C@H]21` ? 0.0383

And the next one, `C[C@]1(c2cc(Nc3ncc(F)c4cc(OCc5ncco5)cnc34)cc(F)c2F)N=C(N)S[C@@]2(C(F)F)C[C@@H]12` ? 0.0588

And the next one, `C[C@]1(c2cc(NC(=O)c3cnc(OCC(F)(F)F)cn3)cc(F)c2F)N=C(N)S[C@@]2(C#N)C[C@H]21` ? 0.0224

And the next one, `C[C@]1(c2cc(Nc3nccc4nc(OCc5ncco5)cnc34)cc(F)c2F)N=C(N)S[C@@]2(C(F)F)C[C@@H]12` ? 0.0285

And the next one, `C#C[C@H](C)Oc1cnc(C(=O)Nc2ccc(F)c([C@@]3(C)N=C(N)S[C@@]4(C(=O)NC)C[C@H]43)c2)cn1` ? 0.0195

And the next one, `C#CCOc1cnc(C(=O)Nc2ccc(F)c([C@@]3(C)N=C(N)S[C@@]4(C(=O)NCC)C[C@H]43)c2)cn1` ? 0.00982

And the next one, `COC[C@]12C[C@H]1[C@@](C)(c1cc(NC(=O)c3cnc(OCC(F)(F)F)cn3)ccc1F)N=C(N)S2` ? 0.118

And the next one, `COC[C@]12C[C@H]1[C@@](C)(c1cc(NC(=O)c3cnc(OCC4CC4)cn3)cc(F)c1F)N=C(N)S2` ? 0.0808

And the next one, `C#CCCOc1cnc(C(=O)Nc2cc(F)c(F)c([C@@]3(C)N=C(N)S[C@@]4(COC)C[C@H]43)c2)cn1` ? 0.13

And the next one, `C[C@]1(c2cc(Nc3nccc4nc(OCc5ncco5)cnc34)ccc2F)N=C(N)S[C@@]2(CF)C[C@H]21` ? 0.0542

And the next one, `CON(C)C(=O)[C@]12C[C@H]1[C@@](C)(c1cc(Nc3ncnc4cc(Cl)cnc34)cc(F)c1F)N=C(N)S2` ? 0.00203

And the next one, `C#CCOc1cnc2c(Nc3cnc(F)c([C@@]4(C)N=C(N)S[C@@]5([C@H](O)C(F)(F)F)C[C@H]54)c3)ncnc2c1` ? 0.0383

And the next one, `C[C@]1(c2cc(Nc3ncnc4cc(C#N)cnc34)ccc2F)N=C(N)S[C@@]2(CO)[C@@H]1C2(F)F` ? 0.0223

And the next one, `COC[C@]12C[C@H]1[C@@](C)(c1cc(NC(=O)c3ncc(O[C@@H](C)c4ncco4)cc3C)cc(F)c1F)N=C(N)S2` ? 2.52

And the next one, `COC[C@H](C)Oc1cnc(C(=O)Nc2ccc(F)c([C@@]3(C)N=C(N)S[C@@]4(C(F)F)C[C@@H]34)c2)cn1` ? 0.38

And the next one, `Cc1cc(NC(=O)c2cnc(OCc3ncco3)cn2)cc([C@@]2(C)N=C(N)S[C@@]3(C(F)F)C[C@@H]23)c1F` ? 0.0167

And the next one, `C#C[C@H](C)Oc1cnc(C(=O)Nc2ccc(F)c([C@@]3(C)N=C(N)S[C@@]4(C(F)F)C[C@@H]34)c2)c(C)n1` ? 0.175

And the next one, `COc1ncc(NC(=O)c2ccc(Cl)cn2)cc1[C@@]1(C)N=C(N)S[C@@]2(CF)C[C@H]21` ? 0.00394
